B1: KCNK9 (parent)
chain: DVPDLQSVCSCTCYRSQDYGGRSV

- Variants of: B1
- testMethodNotes: protein stability index of a GFP-peptide fusion (GPS, HEK-293T) (PSI 1-6); higher = more stable;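 further: lentivirally expressed fusions sorted by FACS into six bins by GFP to DsRed ratio, PSI derived from sequencing read proportions per bin multiplied by bin number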
- testSettings: c terminus: a fixed tail appended
Tag: true if measured protein stability index is not below 2, false if it is.

* C11V | true
* R15C | true
* V8P | false
* Y14S | true
* S10P | false
* Q6N | false
* G20Y | true
* C9T | false
* R22H | true
* S16K | true

Query string: Record C11Q ; criterion: protein stability index no lower than 2. Met?
Result string: true

Query string: Thanks! And D1H ?
Result string: true

Query string: Also Y14H , if possible.
Result string: true

Query string: Same for G20S
Result string: true

Query string: # iterate: C9S
Result string: true

Query string: Consider next the variant S16I in the same way.
Result string: true

Query string: Next variant: G20D
Result string: true

Query string: Entry to check: G21Y
Result string: true

Query string: One more variant: P3C
Result string: true

Query string: Next record, please: Q6R
Result string: true

Query string: Next variant: S23H
Result string: false

Query string: And then S23K , what is it?
Result string: true

Query string: Try this variant too: V2K
Result string: true

Query string: Moving on to the next variant: L5H
Result string: false

Query string: Same lookup for V2N , please.
Result string: true

Query string: Also Y19K , if possible.
Result string: true

Query string: One more variant: L5M
Result string: false

Query string: Quick one: S16H
Result string: false
